Source listed as patent US11360080B2.

Molecular target: HPK1 (MAP4K1) (Homo sapiens)
Construct: Recombinant proteins of kinase domains of various MAP4Ks were used
Sequence (Q92918 17-274 limits assumed, species assumed): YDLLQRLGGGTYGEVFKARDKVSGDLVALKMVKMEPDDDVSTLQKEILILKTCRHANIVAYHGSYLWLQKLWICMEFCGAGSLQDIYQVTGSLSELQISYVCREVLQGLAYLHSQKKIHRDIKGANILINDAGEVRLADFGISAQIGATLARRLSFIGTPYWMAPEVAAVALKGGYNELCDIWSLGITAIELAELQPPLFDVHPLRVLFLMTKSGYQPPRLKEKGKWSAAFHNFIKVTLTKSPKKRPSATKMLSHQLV
Test: In vitro kinase assay, recombinant kinase domain, MBP as substrate
Where a name gives a salt, the structure may show the parent alone.
Endpoint: IC50 (nM)
Kindly answer with a numeric value in nM, unit omitted.

[[record]]
compound = "C=Cc1c(C)c2cc3nc(cc4[nH]c(cc5nc(cc1[nH]2)C(C)=C5CCC(=O)O)c(CCC(=O)OC)c4C)[C@@]1(C)C3=CC=C(C(=O)OC)[C@H]1C(=O)OC [C1, verteporfin]"
endpoint = "IC50"
value_observed = 7.91


Name the reported IC50 value associated with the compound CCCCC(CC)CNC(=N)NC(=N)NCCCCCCNC(=N)NC(=N)NCC(CC)CCCC (centres unmarked) [C2, alexidine dihydrochloride]
6.14

---

Molecular target: GLK (MAP4K3) (Homo sapiens, UniProt Q8IVH8)
Construct: Recombinant proteins of kinase domains of various MAP4Ks were used
Sequence (Q8IVH8 16-273 limits assumed): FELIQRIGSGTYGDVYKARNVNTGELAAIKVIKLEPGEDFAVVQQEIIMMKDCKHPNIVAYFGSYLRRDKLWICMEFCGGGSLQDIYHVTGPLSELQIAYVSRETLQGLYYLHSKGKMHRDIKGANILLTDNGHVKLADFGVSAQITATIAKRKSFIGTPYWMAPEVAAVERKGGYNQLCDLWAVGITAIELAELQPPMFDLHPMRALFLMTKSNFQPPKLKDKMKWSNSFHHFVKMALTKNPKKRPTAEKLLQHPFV
Test: In vitro kinase assay, recombinant kinase domain, myelin basic protein (MBP) as substrate
Counter-ions that a name gives are not always drawn.
# IC50 annotations
Your answer is read as nM, so omit the unit and give the number.

[[record]]
compound = "CCCCC(CC)CNC(=N)NC(=N)NCCCCCCNC(=N)NC(=N)NCC(CC)CCCC (centres unmarked) [C2, alexidine dihydrochloride]"
target_desc = "GLK (MAP4K3) (Homo sapiens, UniProt Q8IVH8)"
value_observed = 10.1


Entry `C=Cc1c(C)c2cc3nc(cc4[nH]c(cc5nc(cc1[nH]2)C(C)=C5CCC(=O)O)c(CCC(=O)OC)c4C)[C@@]1(C)C3=CC=C(C(=O)OC)[C@H]1C(=O)OC` has what IC50?
1.15

---

Molecular target: HGK (MAP4K4) (Homo sapiens)
Construct: Recombinant proteins of kinase domains of various MAP4Ks were used
Sequence (O95819 25-289 limits assumed, species assumed): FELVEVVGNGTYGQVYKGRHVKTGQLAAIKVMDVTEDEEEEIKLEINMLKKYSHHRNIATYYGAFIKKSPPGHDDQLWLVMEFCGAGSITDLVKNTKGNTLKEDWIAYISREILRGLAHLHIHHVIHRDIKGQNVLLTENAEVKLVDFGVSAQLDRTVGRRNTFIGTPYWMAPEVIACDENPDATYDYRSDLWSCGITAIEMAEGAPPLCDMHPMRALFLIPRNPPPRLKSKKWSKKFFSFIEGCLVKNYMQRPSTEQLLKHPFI
Test: In vitro kinase assay, recombinant kinase domain, MBP as substrate
Procedure: GLK kinase activity was determined by measuring the rate of ADP production in the in vitro kinase reaction using ADP-GLO™ Kinase Assay kit. […] The luciferase activity of LLC/luc cells in the mice was detected by In Vivo Imaging System. […] Inhibition of kinase activity of GLK (MAP4K3) or other MAP4Ks was determined by in vitro kinase assays using myelin basic protein (MBP) as a substrate. […]
Structures can show the parent of a compound that is named as a salt.
# IC50 per record follows
// return the numeric value with its unit appended

[[record]]
compound = "CCCCC(CC)CNC(=N)NC(=N)NCCCCCCNC(=N)NC(=N)NCC(CC)CCCC (centres unmarked) [C2, alexidine dihydrochloride]"
value_observed = "21.8 nM"


Note: attention shifts to another entry.
Sample C=Cc1c(C)c2cc3nc(cc4[nH]c(cc5nc(cc1[nH]2)C(C)=C5CCC(=O)O)c(CCC(=O)OC)c4C)[C@@]1(C)C3=CC=C(C(=O)OC)[C@H]1C(=O)OC [C1, verteporfin] — what was its IC50?
4.92 nM
